TARGET ENTITY: ΔF508-CFTR (Homo sapiens, UniProt P13569, DEL508-508)
Construct: host or cells: CFBE41o-, doxycycline-inducible
Sequence (P13569 with tags, fused parts or gaps DEL508-508): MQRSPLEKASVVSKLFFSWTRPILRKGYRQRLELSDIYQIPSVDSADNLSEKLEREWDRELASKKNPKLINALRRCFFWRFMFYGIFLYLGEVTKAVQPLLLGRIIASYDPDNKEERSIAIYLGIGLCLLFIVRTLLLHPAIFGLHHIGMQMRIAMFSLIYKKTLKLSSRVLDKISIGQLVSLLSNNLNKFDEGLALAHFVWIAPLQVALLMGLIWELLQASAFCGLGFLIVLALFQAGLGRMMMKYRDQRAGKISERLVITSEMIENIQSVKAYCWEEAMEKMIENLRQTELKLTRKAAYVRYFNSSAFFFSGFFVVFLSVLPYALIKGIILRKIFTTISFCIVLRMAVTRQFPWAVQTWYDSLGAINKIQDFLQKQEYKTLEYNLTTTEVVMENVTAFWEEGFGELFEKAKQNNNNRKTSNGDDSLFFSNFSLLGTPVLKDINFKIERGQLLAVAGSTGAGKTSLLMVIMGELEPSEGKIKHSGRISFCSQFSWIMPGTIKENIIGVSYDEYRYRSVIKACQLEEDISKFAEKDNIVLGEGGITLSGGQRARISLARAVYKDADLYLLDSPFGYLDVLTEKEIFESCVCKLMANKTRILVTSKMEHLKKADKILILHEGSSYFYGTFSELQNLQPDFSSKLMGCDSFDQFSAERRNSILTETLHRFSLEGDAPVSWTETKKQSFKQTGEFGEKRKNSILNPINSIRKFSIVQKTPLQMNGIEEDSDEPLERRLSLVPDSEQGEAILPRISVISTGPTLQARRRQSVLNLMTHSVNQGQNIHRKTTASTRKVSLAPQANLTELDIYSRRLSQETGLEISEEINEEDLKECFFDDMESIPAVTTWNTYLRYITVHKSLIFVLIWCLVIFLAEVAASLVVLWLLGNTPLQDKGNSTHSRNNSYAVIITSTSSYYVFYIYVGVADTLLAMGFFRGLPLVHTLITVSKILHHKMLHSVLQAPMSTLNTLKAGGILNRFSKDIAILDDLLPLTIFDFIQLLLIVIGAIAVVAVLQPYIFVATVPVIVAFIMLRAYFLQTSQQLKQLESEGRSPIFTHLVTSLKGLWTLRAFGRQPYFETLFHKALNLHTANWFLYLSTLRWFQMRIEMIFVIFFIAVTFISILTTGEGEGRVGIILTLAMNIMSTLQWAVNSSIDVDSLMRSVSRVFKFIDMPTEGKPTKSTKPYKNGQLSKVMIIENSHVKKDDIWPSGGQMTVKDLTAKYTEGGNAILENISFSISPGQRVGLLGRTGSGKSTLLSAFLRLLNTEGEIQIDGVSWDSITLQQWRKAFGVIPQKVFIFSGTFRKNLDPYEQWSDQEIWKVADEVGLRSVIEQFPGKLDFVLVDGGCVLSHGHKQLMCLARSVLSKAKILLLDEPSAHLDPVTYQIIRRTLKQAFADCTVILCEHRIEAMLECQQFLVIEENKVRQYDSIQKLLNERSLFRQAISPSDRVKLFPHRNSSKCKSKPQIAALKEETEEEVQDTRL
ASSAY EXPLANATION: CFTR cell surface levels using HRP-tagged ΔF508-CFTR expressing CFBE cells, in the presence of a co-corrector
Format: cell-based
CONDITION INFO: HRP-tagged ΔF508-CFTR CFBE cells, in the presence of 3 μM co-corrector
Documented % Activation across a set of compounds
Number only, in %; omit the unit.

Worked cases, % Activation given:
COMPOUND | % Activation (%)
COc1ccc(-n2nc(C(C)C)c3c(-c4ccc(N(C)C)cc4)cc(C(=O)NS(C)(=O)=O)nc32)cn1 | 320
COCC1CCN(c2cc(C(=O)NS(C)(=O)=O)nc3c2c(C(C)C)nn3-c2ccnc(N3CCOCC3)n2)CC1 | 530.6
CC(=O)N1CCC(COc2cc(C(=O)NS(C)(=O)=O)nc3c2c(C2CCC2)nn3-c2ccccc2)CC1 | 329.13
CNS(=O)(=O)NC(=O)c1cc(N2CCC(N3CCN(C(C)C)CC3)CC2)c2c(C3CCC3)nn(-c3ccc(F)cc3)c2n1 | 606.08
COCCS(=O)(=O)NC(=O)c1cc(N2CCC(COC)CC2)c2c(C(C)C)nn(CC3CCC3)c2n1 | 475.45

Kindly review the next compound as well.
**Query** Give the measured % Activation of CC(C)c1nn(-c2ccnc(N3CCOCC3)c2)c2nc(C(=O)NS(C)(=O)=O)cc(-c3ccc(N4CCOCC4)cc3)c12 .
**Result** 428.1
